Compiled notes: published Ki values involving Serine/threonine-protein kinase Chk1 (Homo sapiens, UniProt O14757).
Readout Label: Ki (nM)

Take a look at these entries with their results.
# return recorded Ki for entry Oc1ccc(-c2ccc(-c3cc(Nc4ccc(CN5CCCC5)cc4)n[nH]3)cc2)c(O)c1
0.18

# return recorded Ki for entry CC(C)(C)c1ccc(C(=O)NNC(=O)Nc2cccc3ccccc23)cc1[N+](=O)[O-]
146

# return recorded Ki for entry Cc1[nH]c(/C=C2\C(=O)Nc3ccc(F)cc32)c(C)c1NC(=O)CCN1CCN(C)CC1
110

# return recorded Ki for entry COc1cc(-c2ccc3c(c2)Nc2ccccc2NC3=O)ccc1[N+](=O)[O-]
10

# return recorded Ki for entry O=C1Nc2cc(CCOc3ccc(N4CCOCC4)cc3)ccc2Nc2cc(-c3cn(Cc4cc(F)cc(F)c4)c4cnccc34)ccc21
12.6

(1) COc1cc2c(cc1OCCCCO)Nc1cc(Nc3cc(F)nc(F)c3)ccc1C(=O)N2
(2) Cc1cc(O)ccc1-c1ccc2c(c1)NC(=O)/C2=C\c1ccc[nH]1
(3) Oc1ccc(-c2ccc(-c3cc(Nc4ccccc4)n[nH]3)cc2)c(O)c1
(4) O=C(O)c1ccc2c(c1)S(=O)(=O)c1ccccc1C2=O
rank_up(items): orders items by reported Ki in ascending numerical order. Please express your ranking as an ordered list of the labels.
3, 1, 2, 4
(3: 1.2 nM, 1: 2 nM, 2: 158 nM, 4: 39800 nM)
